MIC reference
System: S. aureus M126
Test: MIC, agar plate dilution method
Type: cell-based
Conditions: Staphylococcus aureus, 37° C., 20 hours, SDA with 5% horse blood, read-out: Antimicrobial activity (MIC)

{"compound": "CCC(=O)O[C@@H]1CC(=O)O[C@H](C)C/C=C/C=C/[C@H](O)[C@H](C)C[C@H](CC=O)[C@H](O[C@@H]2O[C@H](C)[C@@H](O[C@H]3C[C@@](C)(OC)[C@@H](OC(=O)CC)[C@H](C)O3)[C@H](N(C)C)[C@H]2O)[C@H]1OC", "MIC": "> 100 µg/mL"}
{"compound": "CCC(=O)O[C@@H]1CC(=O)O[C@H](C)C/C=C/C=C/[C@H](O)[C@H](C)C[C@H](CC=O)[C@H](O[C@@H]2O[C@H](C)[C@@H](O[C@H]3C[C@@](C)(O)[C@@H](OC(=O)CC)[C@H](C)O3)[C@H](N(C)C)[C@H]2O)[C@H]1OC [MDM, midecamycin A1, reference compound]", "MIC": "> 100 µg/mL"}
{"compound": "CO[C@@H]1[C@@H](O[C@@H]2O[C@H](C)[C@@H](O[C@H]3C[C@@](C)(OC)[C@@H](O)[C@H](C)O3)[C@H](N(C)C)[C@H]2O)[C@@H](CC=O)C[C@@H](C)[C@@H](O)/C=C/C=C/C[C@@H](C)OC(=O)C[C@H]1O", "MIC": "> 100 µg/mL"}
{"compound": "CCCC(=O)O[C@H]1[C@H](C)O[C@@H](O[C@H]2[C@H](N(C)C)[C@@H](O)[C@H](O[C@H]3[C@@H](CC=O)C[C@@H](C)[C@@H](O)/C=C/C=C/C[C@@H](C)OC(=O)C[C@@H](O)[C@@H]3OC)O[C@@H]2C)C[C@@]1(C)OC(=O)CC [RKM, rokitamycin, reference compound]", "MIC": "> 100 µg/mL"}

---

Test system: S. pyogenes Cook
Experiment: MIC, agar plate dilution method
Assay type: cell-based
Conditions: Streptococcus pyogenes; 37° C., 20 hours, SDA with 5% horse blood; read-out: Antimicrobial activity (MIC)
MIC reference

{"molecule": "CO[C@@H]1[C@@H](O[C@@H]2O[C@H](C)[C@@H](O[C@H]3C[C@@](C)(OC)[C@@H](OC(=O)C(C)C)[C@H](C)O3)[C@H](N(C)C)[C@H]2O)[C@@H](CC=O)C[C@@H](C)[C@@H](O)/C=C/C=C/C[C@@H](C)OC(=O)C[C@H]1O [(53), 4\"-O-isobutyryl-3\"-Omethylleucomycin V]", "qualifier": "<", "MIC [µg/mL]": 0.025}
{"molecule": "CCC(=O)O[C@@H]1CC(=O)O[C@H](C)C/C=C/C=C/[C@H](O)[C@H](C)C[C@H](CC=O)[C@H](O[C@@H]2O[C@H](C)[C@@H](O[C@H]3C[C@@](C)(OC)[C@@H](O)[C@H](C)O3)[C@H](N(C)C)[C@H]2O)[C@H]1OC [(3), 3\"-O-methylmidecamycin M1]", "qualifier": "=", "MIC [µg/mL]": 0.2}

---

MIC reference
Tested on: S. aureus MS15027
Test: MIC, agar plate dilution method
Format: cell-based
Settings: Staphylococcus aureus, MS15027, 20 h, read-out: Antimicrobial activity (MIC), 37° C., 20 hours, SDA with 5% horse blood
Description: The effect of the first aspect of the present invention resides in the creation of a novel and useful 16-membered macrolide derivative. Antimicrobial activities of the compounds of the present invention were determined by measuring minimum inhibitory concentration (MIC). Minimum inhibitory concentration was determined by the agar plate dilution method in the following manner. […]

{"compound": "CCC(=O)O[C@@H]1CC(=O)O[C@H](C)C/C=C/C=C/[C@H](O)[C@H](C)C[C@H](CC=O)[C@H](O[C@@H]2O[C@H](C)[C@@H](O[C@H]3C[C@@](C)(O)[C@@H](O)[C@H](C)O3)[C@H](N(C)C)[C@H]2O)[C@H]1OC [MDM-M1, midecamycin M1, reference compound]", "scaleUnit": "µg/mL", "qualifier": "=", "MIC": 6.25}
{"compound": "CCC(=O)O[C@@H]1CC(=O)O[C@H](C)C/C=C/C=C/[C@H](OC(C)=O)[C@H](C)C[C@H](CC=O)[C@H](O[C@@H]2O[C@H](C)[C@@H](O[C@H]3C[C@@](C)(OC(C)=O)[C@@H](OC(=O)CC)[C@H](C)O3)[C@H](N(C)C)[C@H]2O)[C@H]1OC [MOM, miokamycin, reference compound]", "scaleUnit": "µg/mL", "qualifier": "=", "MIC": 0.78}
{"compound": "CC[C@H]1OC(=O)[C@H](C)[C@@H](O[C@H]2C[C@@](C)(OC)[C@@H](O)[C@H](C)O2)[C@H](C)[C@@H](O[C@@H]2O[C@H](C)C[C@H](N(C)C)[C@H]2O)[C@](C)(OC)C[C@@H](C)C(=O)[C@H](C)[C@@H](O)[C@]1(C)O [CAM, clarithromycin, reference compound]", "scaleUnit": "µg/mL", "qualifier": ">", "MIC": 100}
{"compound": "CCC(=O)O[C@H]1[C@H](C)O[C@@H](O[C@H]2[C@H](N(C)C)[C@@H](O)[C@H](O[C@H]3[C@@H](CC=O)C[C@@H](C)[C@@H](O)/C=C/C=C/C[C@@H](C)OC(=O)C[C@@H](O)[C@@H]3OC)O[C@@H]2C)C[C@@]1(C)OC", "scaleUnit": "µg/mL", "qualifier": "=", "MIC": 0.2}
{"compound": "CCCC(=O)O[C@H]1[C@H](C)O[C@@H](O[C@H]2[C@H](N(C)C)[C@@H](O)[C@H](O[C@H]3[C@@H](CC=O)C[C@@H](C)[C@@H](O)/C=C/C=C/C[C@@H](C)OC(=O)C[C@@H](O)[C@@H]3OC)O[C@@H]2C)C[C@@]1(C)OC(=O)CC [RKM, rokitamycin, reference compound]", "scaleUnit": "µg/mL", "qualifier": "=", "MIC": 0.78}
{"compound": "CCC(=O)O[C@H]1[C@H](C)O[C@@H](O[C@H]2[C@H](N(C)C)[C@@H](O)[C@H](O[C@H]3[C@@H](CC=O)C[C@@H](C)[C@@H](O)/C=C/C=C/C[C@@H](C)OC(=O)C[C@@H](O)[C@@H]3OC)O[C@@H]2C)C[C@@]1(C)O [LM-A7, leucomycin A7, reference compound]", "scaleUnit": "µg/mL", "qualifier": "=", "MIC": 3.13}
{"compound": "CO[C@@H]1[C@@H](O[C@@H]2O[C@H](C)[C@@H](O[C@H]3C[C@@](C)(OC)[C@@H](O)[C@H](C)O3)[C@H](N(C)C)[C@H]2O)[C@@H](CC=O)C[C@@H](C)[C@@H](O)/C=C/C=C/C[C@@H](C)OC(=O)C[C@H]1O", "scaleUnit": "µg/mL", "qualifier": "=", "MIC": 0.78}
{"compound": "CCC(=O)O[C@@H]1CC(=O)O[C@H](C)C/C=C/C=C/[C@H](O)[C@H](C)C[C@H](CC=O)[C@H](O[C@@H]2O[C@H](C)[C@@H](O[C@H]3C[C@@](C)(OC)[C@@H](OC(=O)CC)[C@H](C)O3)[C@H](N(C)C)[C@H]2O)[C@H]1OC", "scaleUnit": "µg/mL", "qualifier": "=", "MIC": 0.39}
{"compound": "CO[C@@H]1[C@@H](O[C@@H]2O[C@H](C)[C@@H](O[C@H]3C[C@@](C)(OC)[C@@H](OC(=O)CC(C)C)[C@H](C)O3)[C@H](N(C)C)[C@H]2O)[C@@H](CC=O)C[C@@H](C)[C@@H](O)/C=C/C=C/C[C@@H](C)OC(=O)C[C@H]1O", "scaleUnit": "µg/mL", "qualifier": "=", "MIC": 0.2}

---

System: S. aureus MS15026
Assay: MIC, agar plate dilution method
Format: cell-based
Details: Staphylococcus aureus, 37° C., 20 hours, SDA with 5% horse blood, read-out: Antimicrobial activity (MIC)
Method: The effect of the first aspect of the present invention resides in the creation of a novel and useful 16-membered macrolide derivative. Antimicrobial activities of the compounds of the present invention were determined by measuring minimum inhibitory concentration (MIC). Minimum inhibitory concentration was determined by the agar plate dilution method in the following manner. […]
MIC reference

{"molecule": "CCC(=O)O[C@@H]1CC(=O)O[C@H](C)C/C=C/C=C/[C@H](O)[C@H](C)C[C@H](CC=O)[C@H](O[C@@H]2O[C@H](C)[C@@H](O[C@H]3C[C@@](C)(OC)[C@@H](O)[C@H](C)O3)[C@H](N(C)C)[C@H]2O)[C@H]1OC [(3), 3\"-O-methylmidecamycin M1]", "MIC": "> 100 µg/mL"}
{"molecule": "CCCC(=O)O[C@H]1[C@H](C)O[C@@H](O[C@H]2[C@H](N(C)C)[C@@H](O)[C@H](O[C@H]3[C@@H](CC=O)C[C@@H](C)[C@@H](O)/C=C/C=C/C[C@@H](C)OC(=O)C[C@@H](O)[C@@H]3OC)O[C@@H]2C)C[C@@]1(C)OC [(33), 3\"-O-methylleucomycin A5]", "MIC": "> 100 µg/mL"}
